// data source = the supplement of paper PMC10567573

Kindly state protein stability index for each of the entries shown.
B1: BTBD1 (parent)
chain: IVGFGLYGSIHGPTDYQVNIQIIE

variants of: B1; assay: protein stability index of a GFP-peptide fusion (GPS, HEK-293T) (PSI 1-6); higher = more stable; details: c terminus: a fixed tail appended;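 also: lentivirally expressed fusions sorted by FACS into six bins by GFP to DsRed ratio, PSI derived from sequencing read proportions per bin multiplied by bin number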
One number for each entry.

Check out these entries, answers already filled in.
(Q) Give its protein stability index value. Item: P13W
(A) 2.76

(Q) Give its protein stability index value. Item: T14N
(A) 2.95

(Q) Give its protein stability index value. Item: Q17G
(A) 4.09

(Q) Give its protein stability index value. Item: I1V
(A) 3.69

(Q) Give its protein stability index value. Item: Y7N
(A) 2.96

(Q) Give its protein stability index value. Item: E24W
(A) 3.21

(Q) Give its protein stability index value. Item: I20D
(A) 2.31

(Q) Give its protein stability index value. Item: G3D
(A) 3.42

Count: 5. Required value per item: protein stability index.
1. P13C
2. Y16L
3. F4S
4. D15V
5. I22Y

(A)
1: 2.51; 2: 2.09; 3: 2.07; 4: 2.67; 5: 2.48
